- Tested on: Danio rerio larvae (5 dpf)
- assayProtocol: optomotor response to green moving lines, difference vs DMSO (percentage points (treated minus DMSO)); higher = more of the behaviour than the DMSO vehicle control
- testContext: 10 µM; exposure time: 3 h pre-incubation + 3 h imaging
Where a name gives a salt, the structure may show the parent alone.
propertyMeasured: optomotor response to green moving lines

1) OC(c1cc(C(F)(F)F)nc2c(C(F)(F)F)cccc12)C1CCCCN1 (centres undefined) [Mefloquine hydrochloride]: -0.307
2) CC(C)c1nc(CN(C)C(=O)N[C@H](C(=O)N[C@@H](Cc2ccccc2)C[C@H](O)[C@H](Cc2ccccc2)NC(=O)OCc2cncs2)C(C)C)cs1 [Ritonavir]: -6.36
3) CC[C@H]1OC(=O)[C@H](C)[C@@H](O[C@H]2C[C@@](C)(OC)[C@@H](O)[C@H](C)O2)[C@H](C)[C@@H](O[C@@H]2O[C@H](C)C[C@H](N(C)C)[C@H]2O)[C@](C)(O)C[C@@H](C)CN(C)[C@H](C)[C@@H](O)[C@]1(C)O [Azithromycin]: -4.27
4) N#Cc1ccc2[nH]cc(CCCCN3CCN(c4ccc5oc(C(N)=O)cc5c4)CC3)c2c1 [Vilazodone hydrochloride]: -30.3
5) C/C(O)=C(\C#N)C(=O)Nc1ccc(C(F)(F)F)cc1 [Teriflunomide]: -10.8
6) Nc1nc2[nH]cc(CCc3ccc(C(=O)N[C@@H](CCC(=O)O)C(=O)O)cc3)c2c(=O)[nH]1 [Pemetrexed]: 8.22
7) Nc1ncn([C@@H]2O[C@H](CO)[C@@H](O)[C@H]2O)c(=O)n1 [5-Azacytidine]: 1.33
8) C[C@]12CCC(=O)C=C1CC[C@@H]1[C@@H]2[C@@H](O)C[C@@]2(C)[C@H]1CC[C@]2(O)C(=O)CO [Hydrocortisone]: 10.5
9) CC(C)c1nc(N(C)S(C)(=O)=O)nc(-c2ccc(F)cc2)c1/C=C/[C@@H](O)C[C@@H](O)CC(=O)O [Rosuvastatin calcium]: 2.28
10) CC(C)(C(=O)O)c1ccc(C(O)CCCN2CCC(C(O)(c3ccccc3)c3ccccc3)CC2)cc1 (centres undefined) [Fexofenadine hydrochloride]: 3.69
11) CCOc1cc(CC(=O)N[C@@H](CC(C)C)c2ccccc2N2CCCCC2)ccc1C(=O)O [Repaglinide]: 4.27
12) COc1cc2nc(N3CCN(C(=O)c4ccco4)CC3)nc(N)c2cc1OC [Prazosin hydrochloride]: -10.2
13) CCc1c2c(nc3ccc(OC(=O)N4CCC(N5CCCCC5)CC4)cc13)-c1cc3c(c(=O)n1C2)COC(=O)[C@]3(O)CC: -1.18
14) COc1ccc(C[C@@H](C)NC[C@H](O)c2ccc(O)c(NC=O)c2)cc1 [Arformoterol tartrate]: 0.317
15) CCN(CC)CCNC(=O)c1c(C)[nH]c(/C=C2\C(=O)Nc3ccc(F)cc32)c1C [Sunitinib malate]: -7.59
16) CC(=O)NC[C@H]1CN(c2ccc(N3CCOCC3)c(F)c2)C(=O)O1 [Linezolid]: 5.36
17) Nc1cc(N2CCCCC2)nc(N)[n+]1[O-] [Minoxidil]: -7.05
18) C[C@H]1O[C@H](O[C@H]2[C@H](O)[C@@H](O)[C@@H](O[C@H]3[C@H](O)[C@@H](O)C(O)O[C@@H]3CO)O[C@@H]2CO)[C@H](O)[C@@H](O)[C@@H]1N[C@H]1C=C(CO)[C@@H](O)[C@H](O)[C@H]1O (some centres undefined) [Acarbose]: 6.59
19) Cc1cccc(C)c1OCC(C)N (centres undefined) [Mexiletine hydrochloride]: -1.17
20) COC(c1ccccc1)(c1ccccc1)[C@H](Oc1nc(C)cc(C)n1)C(=O)O [Ambrisentan]: -4.71
21) OCCOCCN1CCN(C2=Nc3ccccc3Sc3ccccc32)CC1 [Quetiapine hemifumarate]: 10.3
22) Nc1ncn([C@H]2C[C@H](O)[C@@H](CO)O2)c(=O)n1 [Decitabine]: 0.0025
23) CC1(C)O[C@@H]2[C@@H](CO[C@@]3(COS(N)(=O)=O)OC(C)(C)O[C@@H]23)O1 [Topiramate]: -1.84
24) CC#C[C@]1(O)CC[C@H]2[C@@H]3CCC4=CC(=O)CCC4=C3[C@@H](c3ccc(N(C)C)cc3)C[C@@]21C [Mifepristone]: 11
25) CN1CC[C@@H](NC(=O)Nc2ccc(C#N)cc2)C[C@@H]1c1nc2ccccc2[nH]1: -5.63
26) COc1ccc(Cl)cc1C(=O)NCCc1ccc(S(=O)(=O)NC(=O)NC2CCCCC2)cc1 [Glibenclamide]: 9.49
27) O=c1n(CCCN2CCN(c3cccc(Cl)c3)CC2)nc2ccccn12 [Trazodone hydrochloride]: 1.17
28) N[C@@H]1[C@H]2CN(c3nc4c(cc3F)c(=O)c(C(=O)O)cn4-c3ccc(F)cc3F)C[C@@H]12 [Trovafloxacin mesylate]: -4.23
29) CN1CCN(CCCN2c3ccccc3Sc3ccc(Cl)cc32)CC1 [Prochlorperazine dimaleate]: 3.92

====

- Tested on: Danio rerio larvae (5 dpf)
- assayProtocol: habituation to 1-s acoustic pulses, difference vs DMSO (percentage points (treated minus DMSO)); higher = more of the behaviour than the DMSO vehicle control
- testContext: 10 µM; exposure time: 3 h pre-incubation + 3 h imaging
Counter-ions that a name gives are not always drawn.
propertyMeasured: habituation to 1-s acoustic pulses

1. CCCc1nc(C(C)(C)O)c(C(=O)O)n1Cc1ccc(-c2ccccc2-c2nnn[nH]2)cc1: 3.67
2. COC(c1ccccc1)(c1ccccc1)[C@H](Oc1nc(C)cc(C)n1)C(=O)O: 1.34
3. CCCc1nn(C)c2c(=O)[nH]c(-c3cc(S(=O)(=O)N4CCN(C)CC4)ccc3OCC)nc12 [Sildenafil citrate]: -2.79
4. CCCCCOC(=O)Nc1nc(=O)n([C@@H]2O[C@H](C)[C@@H](O)[C@H]2O)cc1F: -3.26
5. CN(C)C(=N)NC(=N)N [Metformin hydrochloride]: 0.867
6. CC(C)(C)NC(=O)[C@@H]1C[C@@H]2CCCC[C@@H]2CN1C[C@@H](O)[C@H](Cc1ccccc1)NC(=O)[C@H](CC(N)=O)NC(=O)c1ccc2ccccc2n1 [Saquinavir mesylate]: -0.0249
7. CO[C@H]1/C=C/O[C@@]2(C)Oc3c(C)c(O)c4c(O)c(c5c(nc6cc(C)ccn65)c4c3C2=O)NC(=O)/C(C)=C\C=C\[C@H](C)[C@H](O)[C@@H](C)[C@@H](O)[C@@H](C)[C@H](OC(C)=O)[C@@H]1C: -3.04
8. C[C@@H](O[C@H]1OCCN(Cc2n[nH]c(=O)[nH]2)[C@H]1c1ccc(F)cc1)c1cc(C(F)(F)F)cc(C(F)(F)F)c1 [Aprepitant]: 0.23
9. CC(C)c1nc(CN(C)C(=O)N[C@H](C(=O)N[C@@H](Cc2ccccc2)C[C@H](O)[C@H](Cc2ccccc2)NC(=O)OCc2cncs2)C(C)C)cs1: -0.262
10. O=C(O)CCCc1ccccc1 [Sodium 4-Phenylbutyrate]: -4.19
11. Cc1ccc(NC(=O)c2ccc(CN3CCN(C)CC3)cc2)cc1Nc1nccc(-c2cccnc2)n1 [Imatinib mesylate]: 3.16
12. Cc1cn([C@H]2C=C[C@@H](CO)O2)c(=O)[nH]c1=O: -0.918
13. CNCc1ccc(-c2[nH]c3cc(F)cc4c3c2CCNC4=O)cc1 [Rucaparib camsylate]: 4.21
14. CC(C)C(=O)OCC(=O)[C@@]12O[C@H](C3CCCCC3)O[C@@H]1C[C@H]1[C@@H]3CCC4=CC(=O)C=C[C@]4(C)[C@H]3[C@@H](O)C[C@@]12C [Ciclesonide]: -1.43

====

- Test system: Danio rerio larvae (5 dpf)
- assayProtocol: startle response to 20-s acoustic pulses, difference vs DMSO (percentage points (treated minus DMSO)); higher = more of the behaviour than the DMSO vehicle control
- testContext: 10 µM; exposure time: 3 h pre-incubation + 3 h imaging
Counter-ions that a name gives are not always drawn.
propertyMeasured: startle response to 20-s acoustic pulses

1. CCCCC1=NC2(CCCC2)C(=O)N1Cc1ccc(-c2ccccc2-c2nnn[nH]2)cc1: 1.39
2. Cc1ccc(NC(=O)c2ccc(CN3CCN(C)CC3)cc2)cc1Nc1nccc(-c2cccnc2)n1 [Imatinib mesylate]: 5.5
3. OCCOCCN1CCN(C2=Nc3ccccc3Sc3ccccc32)CC1 [Quetiapine hemifumarate]: -1.65
4. CN1CC(=O)N2[C@H](c3ccc4c(c3)OCO4)c3[nH]c4ccccc4c3C[C@@H]2C1=O: 7.96
5. CC(=O)O[C@H]1C(=O)[C@@]2(C)[C@H]([C@H](OC(=O)c3ccccc3)[C@]3(O)C[C@H](OC(=O)[C@H](O)[C@@H](NC(=O)c4ccccc4)c4ccccc4)C(C)=C1C3(C)C)[C@]1(OC(C)=O)CO[C@@H]1C[C@@H]2O: -0.529
6. CCCC1O[C@@H]2C[C@H]3[C@@H]4CCC5=CC(=O)C=C[C@]5(C)[C@H]4[C@@H](O)C[C@]3(C)[C@]2(C(=O)CO)O1 (stereo partly specified) [Budesonide]: -5.65
7. Clc1ccc(COC(Cn2ccnc2)c2ccc(Cl)cc2Cl)c(Cl)c1 (stereo unspecified) [Miconazole nitrate]: 4.56
8. CC(C)(C(=O)c1cccnc1)c1cccnc1: 3.51
9. C/C(O)=C(\C#N)C(=O)Nc1ccc(C(F)(F)F)cc1 [Teriflunomide]: -4.42
10. O=C1CCc2ccc(OCCCCN3CCN(c4cccc(Cl)c4Cl)CC3)cc2N1: -4.17
11. COc1ccc(-c2ccc3cc(C(=O)O)ccc3c2)cc1C12CC3CC(CC(C3)C1)C2: 0.11
12. CC(C)CN(C[C@@H](O)[C@H](Cc1ccccc1)NC(=O)O[C@H]1CO[C@H]2OCC[C@H]21)S(=O)(=O)c1ccc(N)cc1: -1.98
13. CC(C)Nc1cccnc1N1CCN(C(=O)c2cc3cc(NS(C)(=O)=O)ccc3[nH]2)CC1 [Delavirdine mesylate]: -4.51
14. OCCN1C[C@H](O)[C@@H](O)[C@H](O)[C@H]1CO: -1.17
15. OC(CNCC(O)C1CCc2cc(F)ccc2O1)C1CCc2cc(F)ccc2O1 (stereo unspecified) [Nebivolol hydrochloride]: -6.21
16. O=C(Nc1c(Cl)cncc1Cl)c1ccc(OC(F)F)c(OCC2CC2)c1: 1.99
